The reported numbers originate from patent US20110319464A1.

Assay: Pharmacokinetic Study on Silodosin (Study 98364)
Format: in vivo
Conditions: male, human, plasma, 4 mg, 4 mg once daily 7 days, Day 7, 0.5 h, mean; read-out: Blood Plasma Concentrations
experimental readout: concentration at 0.5 h (ng/mL)
Answers are plain numbers, in ng/mL.

Please report the measured concentration at 0.5 h for C[C@H](Cc1cc2c(c(C(N)=O)c1)N(CCCO)CC2)NCCOc1ccccc1OCC(F)(F)F [Silodosin] 5.57

====

Test: Pharmacokinetic Study on Silodosin (Study 98364)
Format: in vivo
Conditions: male, human, plasma, 4 mg, 4 mg twice daily 7 days (simulated from Table 1a), Day 7, 14 h; read-out: Estimated Blood Plasma Concentrations
experimental readout: concentration at 14 h (ng/mL)
Give bare numbers, in ng/mL.

Please report the measured concentration at 14 h for C[C@H](Cc1cc2c(c(C(N)=O)c1)N(CCCO)CC2)NCCOc1ccccc1OCC(F)(F)F 31.5

====

Experiment: Pharmacokinetic Study on Silodosin (Study 98364)
Assay type: in vivo
Conditions: male, human, plasma, 4 mg, 4 mg twice daily 7 days (simulated from Table 1a), Day 7, 12.25 h; read-out: Estimated Blood Plasma Concentrations
experimental readout: concentration at 12.25 h (ng/mL)
Answers are plain numbers, in ng/mL.

Please report the measured concentration at 12.25 h for C[C@H](Cc1cc2c(c(C(N)=O)c1)N(CCCO)CC2)NCCOc1ccccc1OCC(F)(F)F 4.67

====

Assay: Pharmacokinetic Study on Silodosin (Study 98364)
Type: in vivo
Conditions: human, plasma, 4 mg, 4 mg once daily 7 days, Day 7, 2 h, individual subjects; read-out: Blood Plasma Concentrations
Text: The remaining two subjects in each dosing cohort received placebo.
experimental readout: concentration at 2 h
The reply must contain the numeric value and, after it, the unit.

Please report the measured concentration at 2 h for C[C@H](Cc1cc2c(c(C(N)=O)c1)N(CCCO)CC2)NCCOc1ccccc1OCC(F)(F)F 35.3 ng/mL

====

Experiment: Pharmacokinetic Study on Silodosin (Study 98364)
Format: in vivo
Conditions: male, human, plasma, 4 mg, 4 mg twice daily 7 days (simulated from Table 1a), Day 7, 5 h; read-out: Estimated Blood Plasma Concentrations
experimental readout: concentration at 5 h (ng/mL)
Answers are plain numbers, in ng/mL.

Please report the measured concentration at 5 h for C[C@H](Cc1cc2c(c(C(N)=O)c1)N(CCCO)CC2)NCCOc1ccccc1OCC(F)(F)F 10.3

====

Assay: Pharmacokinetic Study on Silodosin (Study 98364)
Type: in vivo
Conditions: male, human, plasma, 4 mg, 4 mg twice daily 7 days (simulated from Table 1a), Day 7, 24 h; read-out: Estimated Blood Plasma Concentrations
experimental readout: concentration at 24 h (ng/mL)
Numbers only, in ng/mL.

Please report the measured concentration at 24 h for C[C@H](Cc1cc2c(c(C(N)=O)c1)N(CCCO)CC2)NCCOc1ccccc1OCC(F)(F)F [Silodosin] 5.57

====

Test: Pharmacokinetic Study on Silodosin (Study 98364)
Format: in vivo
Details: male, human, plasma, 4 mg, 4 mg once daily 7 days, Day 7, 1 h, mean; read-out: Blood Plasma Concentrations
experimental readout: concentration at 1 h (ng/mL)
One number for each entry, in ng/mL.

Please report the measured concentration at 1 h for C[C@H](Cc1cc2c(c(C(N)=O)c1)N(CCCO)CC2)NCCOc1ccccc1OCC(F)(F)F 21.2

====

Assay: Pharmacokinetic Study on Silodosin (Study 98364)
Type: in vivo
Conditions: male, human, plasma, 4 mg, 4 mg twice daily 7 days (simulated from Table 1a), Day 7, 6 h; read-out: Estimated Blood Plasma Concentrations
experimental readout: concentration at 6 h (ng/mL)
Give bare numbers, in ng/mL.

Please report the measured concentration at 6 h for C[C@H](Cc1cc2c(c(C(N)=O)c1)N(CCCO)CC2)NCCOc1ccccc1OCC(F)(F)F 7.26

====

Test: clinical
Conditions: male, human, plasma, 4 mg
experimental readout: concentration at 18 h
The reply must contain the numeric value and, after it, the unit.

Please report the measured concentration at 18 h for C[C@H](Cc1cc2c(c(C(N)=O)c1)N(CCCO)CC2)NCCOc1ccccc1OCC(F)(F)F [Silodosin] 7.89 ng/mL

====

Experiment: clinical
Conditions: male, human, plasma, 4 mg
experimental readout: concentration at 15 h (ng/mL)
Numbers only, in ng/mL.

Please report the measured concentration at 15 h for C[C@H](Cc1cc2c(c(C(N)=O)c1)N(CCCO)CC2)NCCOc1ccccc1OCC(F)(F)F [Silodosin] 32.5

====

Test: clinical
Details: male, human, plasma, 8 mg
experimental readout: Cmax
The reply must contain the numeric value and, after it, the unit.

Please report the measured Cmax for C[C@H](Cc1cc2c(c(C(N)=O)c1)N(CCCO)CC2)NCCOc1ccccc1OCC(F)(F)F 63.2 ng/mL

====

Assay: Pharmacokinetic Study on Silodosin (Study 98364)
Type: in vivo
Conditions: male, human, plasma, 4 mg, 4 mg twice daily 7 days (simulated from Table 1a), Day 7, 12 h; read-out: Estimated Blood Plasma Concentrations
experimental readout: concentration at 12 h (ng/mL)
Answers are plain numbers, in ng/mL.

Please report the measured concentration at 12 h for C[C@H](Cc1cc2c(c(C(N)=O)c1)N(CCCO)CC2)NCCOc1ccccc1OCC(F)(F)F 3.31

====

Assay: clinical
Conditions: male, human, plasma, 4 mg
experimental readout: half-life
The reply must contain the numeric value and, after it, the unit.

Please report the measured half-life for C[C@H](Cc1cc2c(c(C(N)=O)c1)N(CCCO)CC2)NCCOc1ccccc1OCC(F)(F)F [Silodosin] 10.7 h

====

Test: Pharmacokinetic Study on Silodosin (Study 98364)
Assay type: in vivo
Settings: male, human, plasma, 4 mg, 4 mg once daily 7 days, Day 7, 8 h, mean; read-out: Blood Plasma Concentrations
Description: The remaining two subjects in each dosing cohort received placebo.
experimental readout: concentration at 8 h (ng/mL)
Numbers only, in ng/mL.

Please report the measured concentration at 8 h for C[C@H](Cc1cc2c(c(C(N)=O)c1)N(CCCO)CC2)NCCOc1ccccc1OCC(F)(F)F [Silodosin] 5.45

====

Assay: clinical
Conditions: male, human, in vivo, 8 mg
experimental readout: concentration at 12 h (ng/mL)
One number for each entry, in ng/mL.

Please report the measured concentration at 12 h for C[C@H](Cc1cc2c(c(C(N)=O)c1)N(CCCO)CC2)NCCOc1ccccc1OCC(F)(F)F 9.45

====

Test: Pharmacokinetic Study on Silodosin (Study 98364)
Type: in vivo
Settings: male, human, plasma, 4 mg, 4 mg twice daily 7 days (simulated from Table 1a), Day 7, 0 h (t0); read-out: Estimated Blood Plasma Concentrations
experimental readout: concentration at 0 h (ng/mL)
Numbers only, in ng/mL.

Please report the measured concentration at 0 h for C[C@H](Cc1cc2c(c(C(N)=O)c1)N(CCCO)CC2)NCCOc1ccccc1OCC(F)(F)F 4.63

====

Assay: clinical
Details: male, human, plasma, 8 mg
experimental readout: half-life (min)
One number for each entry, in min.

Please report the measured half-life for C[C@H](Cc1cc2c(c(C(N)=O)c1)N(CCCO)CC2)NCCOc1ccccc1OCC(F)(F)F 672

====

Assay: clinical
Details: male, human, plasma, 4 mg
experimental readout: concentration at 0.3 h
The reply must contain the numeric value and, after it, the unit.

Please report the measured concentration at 0.3 h for C[C@H](Cc1cc2c(c(C(N)=O)c1)N(CCCO)CC2)NCCOc1ccccc1OCC(F)(F)F 0 ng/mL

====

Assay: Pharmacokinetic Study on Silodosin (Study 98364)
Format: in vivo
Conditions: male, human, plasma, 4 mg, 4 mg once daily 7 days, Day 7, 0 h (t0), mean; read-out: Blood Plasma Concentrations
experimental readout: concentration at 0 h (ng/mL)
Answers are plain numbers, in ng/mL.

Please report the measured concentration at 0 h for C[C@H](Cc1cc2c(c(C(N)=O)c1)N(CCCO)CC2)NCCOc1ccccc1OCC(F)(F)F [Silodosin] 4.63

====

Assay: clinical
Details: male, human, plasma, 8 mg
experimental readout: concentration at 145.5 h (ng/mL)
One number for each entry, in ng/mL.

Please report the measured concentration at 145.5 h for C[C@H](Cc1cc2c(c(C(N)=O)c1)N(CCCO)CC2)NCCOc1ccccc1OCC(F)(F)F 67.9

====

Test: Pharmacokinetic Study on Silodosin (Study 98364)
Format: in vivo
Settings: male, human, plasma, 4 mg, 4 mg twice daily 7 days (simulated from Table 1a), Day 7, 1 h; read-out: Estimated Blood Plasma Concentrations
From the text: The remaining two subjects in each dosing cohort received placebo.
experimental readout: concentration at 1 h (ng/mL)
One number for each entry, in ng/mL.

Please report the measured concentration at 1 h for C[C@H](Cc1cc2c(c(C(N)=O)c1)N(CCCO)CC2)NCCOc1ccccc1OCC(F)(F)F [Silodosin] 21.2
